- experimentalTarget: Cyclin-dependent kinase 2 (Homo sapiens)
Threshold-based label: IC50 under 200 nM gives 1 (yes), IC50 not under 200 nM gives 0 (no).

Is IC50 of COc1ccc(Nc2nc(N)c(N=O)c(OCC3CCCCC3)n2)cc1 strictly below 200 nM?
0 (no)

Is IC50 of NC(=O)c1ccc(Nc2nc(N)cc(OCC3CCCCC3)n2)cc1 strictly below 200 nM?
0 (no)

Is IC50 of Nc1nc(Nc2cccc(Br)c2)nc(OCC2CCCCC2)c1N=O strictly below 200 nM?
0 (no)

Is IC50 of Nc1cc(OCC2CCCCC2)nc(Nc2ccc(S(N)(=O)=O)cc2)n1 strictly below 200 nM?
0 (no)

Is IC50 of Nc1nc(Nc2ccc(S(N)(=O)=O)cc2)nc(OCC2CCCCC2)c1N=O strictly below 200 nM?
1 (yes)

Is IC50 of CSc1ccc(Nc2nc(N)c(N=O)c(OCC3CCCCC3)n2)cc1 strictly below 200 nM?
1 (yes)
